B1: Osa-1-4 twister ribozyme (parent)
chain: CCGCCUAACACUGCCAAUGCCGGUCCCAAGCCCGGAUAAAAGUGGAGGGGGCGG

# Variants of: B1
# protocol notes: self-cleavage, relative activity (ratio to wild type); higher = more cleavage; co-transcriptional
Hi there, I'd appreciate the recorded self-cleavage for every entry that follows.
Respond with the number and no other words.

Data request, read-out self-cleavage, for CCGCCUAACACUGCCAAUGCCGGUCCCAAGCCCGGAUUAAAGUGGAGGGGGAGG [A38U C52A]
1

Let us now turn to CCGCCUAACACUGCCAAUGCCGGUCCCAAGCCCGGAUAAAAGUGCAGGGGGUGG [C52U G45C]
0.07

Repeat with CCGCCUAACUCUGCCAAUGCCGGUCCCAAGCCCGGAUAAAAGUGGAGGGGGCGC [A10U G54C]
0.04

And for CCGCCUAACACUGCCAAUGCCGGUCCUAAGCCCGGAUAAAAGUGGAGGGGGCGG [C27U] ?
0.33

Could you do the same for CCGCCUAACACUGCCAAUGCCGGUCCCAAGCCCGGAUAAAACUGGAGGGGGCGU [G42C G54U] , please?
0.43

// next record CCGCCUAACACGGCCAAUGCCGGUCCCAAGCCCGGAUUAAAGUGGAGGGGGCGG [A38U U12G]
0.31

Now consider CCGCCUAACACUGCCAAUGCCGGUCCCAAGACCGGAUACAAGUGGAGGGGGCGG [A39C C31A] and answer again.
0.04

Also CCGCCUAACACUGCCAAUGCCGGUCCCAAGCCCUGAUAAAAGUGGAGGGCGCGG [G34U G50C] ?
0.39

// query: CCGCCUAACACUGCCAGUGCCGGUCCCAAGCCCGGAUAAAAGUGGAGGGGGCUG [A17G G53U]
0.54

Moving on to the next variant: CCGCCUAACACCGCCAAUGCCGGUCCCAAGCCCGGAUAAAAGUGGAGGGGUCGG [G51U U12C]
0.08

Moving on to the next variant: CCGCCUAACACUGCCAAAGCCGGUCCCAAGCCCGGAUAAAAGUGGAGGGGUCGG [G51U U18A]
0.31

Field entry: CCGCCUAACACUGCCAAUGCUGGUCCCACGCCCGGAUAAAAGUGGAGGGGGCGG [A29C C21U]
0.06

Same again, this time with CCGCCUAACACUGCCAAUGCCGGUCCCAAGCCCGGAUUAAAGCGGAGGGGGCGG [A38U U43C]
0.39

Entry CCGCCUAACACUGCCUCUGCCGGUCCCAAGCCCGGAUAAAAGUGGAGGGGGCGG [A16U A17C] please
0.94

Another variant to look at: CCGCCUAACACUGCCAAUGCCGGUCCAAAGCCUGGAUAAAAGUGGAGGGGGCGG [C27A C33U]
0.1

Entry CCGCCUAACACUGCCAAUGCCGGUCCCAAGCCCGGAUAAGAGUGGAGGGGGUGG [A40G C52U] please
0.94

Field entry: CCGCCUAUCACUGCCAAUGUCGGUCCCAAGCCCGGAUAAAAGUGGAGGGGGCGG [A8U C20U]
0.41

Another variant: CCGCCUAACACUGCCAACGCCGGUCCCAAGCCCGGAUAUAAGUGGAGGGGGCGG [A39U U18C]
0.97

Ok, now CCGCCUAACACUGCCAAUGCCGGUCCCACGCCCGGCUAAAAGUGGAGGGGGCGG [A29C A36C]
0.03

Moving on to CCGCCUAACACUGCCAAUGCCGGUCCCAAGCCCGGAUAAAAGUGGACGGGGGGG [C52G G47C]
0.11

Try this variant too: CCGCCUAACACUGCCAAUGCCGGUCCCAUGCCCGGAUAAAAGUGGAGUGGGCGG [A29U G48U]
0.03

One more variant: CCGCCUAACACUGCCAAUGCUGGUCCCAAGCCCGGUUAAAAGUGGAGGGGGCGG [A36U C21U]
1.04

Cool, now CCGCCUAACACUGCCAAUGCCGGUCCCAAGCCCGGAUUAUAGUGGAGGGGGCGG [A38U A40U]
0.55

Now the variant CCGCCUAACACUGCCAAUGCCGGUCCCCAGCCCGGAUAAAAGUGGAGGGGGCGC [A28C G54C]
0.86

Check CCGCCUAACACUGCCAAUGCCGGUCCCAAGCCCGGAUAAAGGUGGCGGGGGCGG [A41G A46C] too.
0.06

Also check CCGCCUAACACUGCCAAUGCCGGUCCCAAGCCCGCAUAAAAGUGGAGGGUGCGG [G35C G50U]
0.17

Next: CCGCCUAACACUUCCAAUGCCGGUCCCAAGCCCGGAUAAAAGUGGAGGGGGCUG [G13U G53U]
0.02

# iterate: CCGCCUAACACUGCCAAUGCCGGUCCCAAGCCCGGACAAAAGUGGAGGCGGCGG [G49C U37C]
0.07

Next variant up: CCGCCUAACACUGCCAAUGCCGCUCCCAAGCCCGGAUAAUAGUGGAGGGGGCGG [A40U G23C]
0.04

How about this variant: CCGCCUAACACUGCCAAUGCCGGUCACAAGCCCGGAUAAAAGUGGGGGGGGCGG [A46G C26A]
0.03

// next record CCGCCUAACACUGCCAAUGCCGGUCCCAAGCCCGGCUAAAAGUGGAGGGGGCGG [A36C]
0.86

Try CCGCCUAACAUUGCCAAUGCCGGUUCCAAGCCCGGAUAAAAGUGGAGGGGGCGG [C11U C25U] next.
0.52

Field entry: CCGCCUAACACUGCCAAGGCCGGUCCCAAGCCCAGAUAAAAGUGGAGGGGGCGG [G34A U18G]
0.71

Another variant to look at: CCGCCUAACACUGCCAAUGCCGGUCCCAAGCCCGGAUCAAAGUGGAGGGGGCGU [A38C G54U]
0.94

Record: CCGCCUAACACUGCCAAUGCCGGUCCCAAGCCCGGAUAAAAGUGCGGGGGGCGG [A46G G45C]
0.03

Also CCGCCUAACACUGCCAAUGCCGGUCCCUAGCCCGGAUAAAAGUGGGGGGGGCGG [A28U A46G] ?
0.7

Same question for CCGCCUAACACUGCUACUGCCGGUCCCAAGCCCGGAUAAAAGUGGAGGGGGCGG [A17C C15U] please.
0.77

Now give it for CCGCCUAACACUGCCAAUGCCGGUCCCAAGCCCGGAUAAAAGUGGAGUGGGCGA [G48U G54A] too.
0.11

For CCGCCUAACACUGCCAAUCCCGGUCCCAAGCCCGGAUAAAAGUGGAUGGGGCGG [G19C G47U] then?
0.04

How about CCGCCUAACACUGCCAAUGCCGGUUCCAAGCUCGGAUAAAAGUGGAGGGGGCGG [C25U C32U] ?
0.08

Query CCGCCUAACACUGGCAAUGCCGGUCCCAAGCCCGGAUAAAAGUGGAUGGGGCGG [C14G G47U] next
0.04

Please give the result for CCGCCUAACACUGACAAUGCCGGUCCCAAGCCCGGAUAAAAGUGGACGGGGCGG [C14A G47C] too.
0.03

Thanks! And CCGCCUAACACUGCCAAUGCCGGUCCCAAGCCUAGAUAAAAGUGGAGGGGGCGG [C33U G34A] ?
0.22

Then this variant: CCGCCUAACACUGCCAAUGCCGGACCCAAGCCCGGAUAAAAGUGGAGGGGGCGC [G54C U24A]
0.07

How about CCGCCUAACACUGCCAAUCCCGGUCCCAAGCCCGGAUACAAGUGGAGGGGGCGG [A39C G19C] ?
0.06

Also need CCGCCUAACAGAGCCAAUGCCGGUCCCAAGCCCGGAUAAAAGUGGAGGGGGCGG [C11G U12A] , thanks.
0.15
